# System: resting platelets
# procedure.text: Platelet aggregation induced by peptide in resting washed platelets (activation)
# Format: cell-based, human (healthy volunteers)
# condition.context: replicate donor f; pal 20 μM, tat 50 μM
assay.readout: Aggregation before TRAP activation, donor f
Give the figure by itself; no unit, no explanation.

Data request, read-out Aggregation before TRAP activation, donor f, for pal-KLLITIHDRKE-(NH2) [pal-ITGB3_JM, N-terminally palmitylated ITGB3 juxtamembrane peptide]
3

Queued: pal-APTNEFYA [pal-SDC4_tail, N-terminally palmitylated syndecan-4 tail peptide]
4

Queued: pal-TNITYRGT [pal-ITGB3_tail, N-terminally palmitylated ITGB3 tail peptide]
5

***
Data request, read-out Aggregation before TRAP activation, donor f, for pal-LEEDDEEGE [pal-ITGA2B_tail, N-terminally palmitylated ITGA2B tail peptide]
3

----------
# Test system: TRAP-activated platelets
# procedure.text: Inhibition of TRAP-induced platelet aggregation after pre-incubation with peptide
# Type: cell-based, human (healthy volunteers)
# condition.context: replicate 18_06_13; peptide 20 μM, TRAP 4 μM
Listing of entries alongside the reported Inhibition, donor 18_06_13.
Give the figure by itself; no unit, no explanation.

Completed entries (count: 4):
Data request, read-out Inhibition, donor 18_06_13, for pal-APTNEFYA [pal-SDC4_tail, N-terminally palmitylated syndecan-4 tail peptide]
67

Queued: Pal-RMKKKDEGSYD-APTNEFYA [pal-SDC4-JM U SDC4-tail, palmitylated chimeric peptide of SDC4 juxtamembrane and tail regions]
62

Queued: Pal-KKAPTNEFYA [Pal-KK-SDC4-tail, palmitylated, slightly extended SDC4 tail peptide …]
64

Queued: Pal-RMKKKDEGSYD-LGKKPIYKK [pal-SDC4-JM U SDC4-middle, palmitylated chimeric peptide of SDC4 juxtamembrane and middle regions]
9

***
Data request, read-out Inhibition, donor 18_06_13, for pal-RMKKKDEGSYD-(NH2) [pal-SDC4_JM, N-terminally palmitylated syndecan-4 juxtamembrane peptide]
56

Queued: Pal-LGKKPIYKK-APTNEFYA [pal-SDC4-middle U SDC4-tail, palmitylated chimeric peptide of SDC4 middle and tail regions]
5

Queued: YKDSMERDKGK [pal-SDC4_JM Control 1, scrambled control of pal-SDC4_JM, reference compound]
72

Queued: KIKGPKLKY [pal-SDC4_middle Control 1, scrambled control of pal-SDC4_middle, reference compound]
9

Queued: pal-LGKKPIYKK-(NH2) [pal-SDC4_middle, N-terminally palmitylated syndecan-4 middle (variable) region peptide]
23

----------
# Tested on: resting platelets
# procedure.text: Platelet aggregation induced by peptide in resting washed platelets (activation)
# Format: cell-based, human (healthy volunteers)
# condition.context: replicate donor d; pal 20 μM, tat 50 μM
Listing of entries alongside the reported Aggregation before TRAP activation, donor d.
Give the figure by itself; no unit, no explanation.

Data request, read-out Aggregation before TRAP activation, donor d, for pal-KLLITIHDRKE-(NH2) [pal-ITGB3_JM, N-terminally palmitylated ITGB3 juxtamembrane peptide]
4

Queued: pal-LEEDDEEGE [pal-ITGA2B_tail, N-terminally palmitylated ITGA2B tail peptide]
2

Queued: NSDTPPRPDRLPL-tat [PTPN12-tat, PTPN12 peptide with C-terminal tat]
4

Queued: pal-APTNEFYA [pal-SDC4_tail, N-terminally palmitylated syndecan-4 tail peptide]
2

Queued: pal-TNITYRGT [pal-ITGB3_tail, N-terminally palmitylated ITGB3 tail peptide]
2

Queued: KLSQLTSLLSSIE-tat [INPP5D-tat, INPP5D peptide with C-terminal tat]
3

Next up:
Data request, read-out Aggregation before TRAP activation, donor d, for GIESMSQDTEVRSRVVGGS-tat [PTPN1-tat, PTPN1 peptide with C-terminal tat]
4

----------
# Tested on: resting platelets
# procedure.text: Platelet aggregation induced by peptide in resting washed platelets (activation)
# Type: cell-based, human (healthy volunteers)
# condition.context: replicate 20_06_13; SDC4 peptides and controls, 20 μM; in % (unit assumed)
assay.readout: Activation, donor 20_06_13
Give the figure by itself; no unit, no explanation.

Data request, read-out Activation, donor 20_06_13, for Pal-LGKKPIYKK-APTNEFYA [pal-SDC4-middle U SDC4-tail, palmitylated chimeric peptide of SDC4 middle and tail regions]
-2

Queued: Pal-KKAPTNEFYA [Pal-KK-SDC4-tail, palmitylated, slightly extended SDC4 tail peptide …]
2

Queued: Pal-RMKKKDEGSYD-APTNEFYA [pal-SDC4-JM U SDC4-tail, palmitylated chimeric peptide of SDC4 juxtamembrane and tail regions]
2

----------
# Tested on: TRAP-activated platelets
# procedure.text: Inhibition of TRAP-induced platelet aggregation after pre-incubation with peptide
# Assay type: cell-based, human (healthy volunteers)
# condition.context: replicate donor f; TRAP 4 μM; pal 20 μM, tat 50 μM
Listing of entries alongside the reported Aggregation after TRAP activation, donor f.
Give the figure by itself; no unit, no explanation.

Completed entries (count: 3):
Data request, read-out Aggregation after TRAP activation, donor f, for pal-TNITYRGT [pal-ITGB3_tail, N-terminally palmitylated ITGB3 tail peptide]
77

Queued: pal-KLLITIHDRKE-(NH2) [pal-ITGB3_JM, N-terminally palmitylated ITGB3 juxtamembrane peptide]
77

Queued: pal-APTNEFYA [pal-SDC4_tail, N-terminally palmitylated syndecan-4 tail peptide]
54

Next up:
Data request, read-out Aggregation after TRAP activation, donor f, for pal-LEEDDEEGE [pal-ITGA2B_tail, N-terminally palmitylated ITGA2B tail peptide]
76

----------
# Tested on: resting platelets
# procedure.text: Platelet aggregation induced by peptide in resting washed platelets (activation)
# Assay type: cell-based, human (healthy volunteers)
# condition.context: replicate donor g; pal 20 μM, tat 50 μM
assay.readout: Aggregation before TRAP activation, donor g
Give the figure by itself; no unit, no explanation.

Completed entries (count: 2):
Data request, read-out Aggregation before TRAP activation, donor g, for pal-TNITYRGT [pal-ITGB3_tail, N-terminally palmitylated ITGB3 tail peptide]
3

Queued: pal-LEEDDEEGE [pal-ITGA2B_tail, N-terminally palmitylated ITGA2B tail peptide]
2

***
Data request, read-out Aggregation before TRAP activation, donor g, for pal-APTNEFYA [pal-SDC4_tail, N-terminally palmitylated syndecan-4 tail peptide]
15

Queued: pal-KLLITIHDRKE-(NH2) [pal-ITGB3_JM, N-terminally palmitylated ITGB3 juxtamembrane peptide]
5

----------
# System: TRAP-activated platelets
# procedure.text: Inhibition of TRAP-induced platelet aggregation after pre-incubation with peptide
# Format: cell-based, human (healthy volunteers)
# condition.context: TRAP 2 μM after 6 minutes pre-incubation; double concentration of 4 μM (pal) / 10 μM (tat); mean n = 3
Listing of entries alongside the reported Aggregation after TRAP, peptide alone 2x (A 2x / B 2x).
Give the figure by itself; no unit, no explanation.

Data request, read-out Aggregation after TRAP, peptide alone 2x (A 2x / B 2x), for pal-KVGFFKR-(NH2) [pal-ITGA2B_JM, N-terminally palmitylated ITGA2B juxtamembrane peptide KVGFFKR]
49.33

Queued: pal-RMKKKDEGSYD-(NH2) [pal-SDC4_JM, N-terminally palmitylated syndecan-4 juxtamembrane peptide]
64.33

Queued: pal-LGKKPIYKK-(NH2) [pal-SDC4_middle, N-terminally palmitylated syndecan-4 middle (variable) region peptide]
1.67

Queued: Pal-KKAPTNEFYA [Pal-KK-SDC4-tail, palmitylated, slightly extended SDC4 tail peptide …]
3

Queued: pal-APTNEFYA [pal-SDC4_tail, N-terminally palmitylated syndecan-4 tail peptide]
24.67

Queued: pal-LEEDDEEGE [pal-ITGA2B_tail, N-terminally palmitylated ITGA2B tail peptide]
66

----------
# Tested on: TRAP-activated platelets
# procedure.text: Inhibition of TRAP-induced platelet aggregation after pre-incubation with peptide
# Type: cell-based, human (healthy volunteers)
# condition.context: TRAP 2 μM after 6 minutes pre-incubation; double concentration of 4 μM (pal) / 10 μM (tat); mean n = 3
assay.readout: Aggregation after TRAP, peptide alone 2x (A 2x / B 2x)
Give the figure by itself; no unit, no explanation.

Completed entries (count: 3):
Data request, read-out Aggregation after TRAP, peptide alone 2x (A 2x / B 2x), for TLELDRLMASLSDFRVQNHLP-tat-(NH2) [TGFB1I1_LD-tat, TGFB1I1 LD motif peptide with C-terminal tat]
65.67

Queued: tat-DPMSSTYIEELGKREVTIPPKYRELLA-(NH2) [tat-CAST_1, tat peptide from calpastatin (CAST)]
70.67

Queued: pal-FAKFEEERAR-(NH2) [pal-ITGB3_middle1, N-terminally palmitylated ITGB3 peptide …]
43.67

Next up:
Data request, read-out Aggregation after TRAP, peptide alone 2x (A 2x / B 2x), for tat-WEQLLTTIARTINEVENQI-(NH2) [tat-ACTN1_VBS]
68.67

----------
Listing of entries alongside the reported Platelet aggregation remaining after TRAP (low = inhibition).
# System: TRAP-activated platelets
# procedure.text: Inhibition of TRAP-induced platelet aggregation after pre-incubation with peptide
# Format: cell-based, human (healthy volunteers)
# condition.context: S3 Table; peptide 5 μM; aggregation after TRAP; n=3
Give the figure by itself; no unit, no explanation.

Completed entries (count: 3):
Data request, read-out Platelet aggregation remaining after TRAP (low = inhibition), for Pal-KKAPTNEFYA [Pal-KK-SDC4-tail, palmitylated, slightly extended SDC4 tail peptide …]
63

Queued: Pal-RMKKKDEGSYD-LGKKPIYKK [pal-SDC4-JM U SDC4-middle, palmitylated chimeric peptide of SDC4 juxtamembrane and middle regions]
61

Queued: pal-WEQLLTTIARTINEVENQI [B3p ACTN1-VBS]
76

***
Data request, read-out Platelet aggregation remaining after TRAP (low = inhibition), for pal-KVGFFKR-TLELDRLMASLS [B20p ITGA2b-JM U TGFB1I1-LD, palmitylated chimeric peptide]
71
